molecular target: 5-hydroxytryptamine receptor 2C (Homo sapiens)
Sequence (P28335 whole entry): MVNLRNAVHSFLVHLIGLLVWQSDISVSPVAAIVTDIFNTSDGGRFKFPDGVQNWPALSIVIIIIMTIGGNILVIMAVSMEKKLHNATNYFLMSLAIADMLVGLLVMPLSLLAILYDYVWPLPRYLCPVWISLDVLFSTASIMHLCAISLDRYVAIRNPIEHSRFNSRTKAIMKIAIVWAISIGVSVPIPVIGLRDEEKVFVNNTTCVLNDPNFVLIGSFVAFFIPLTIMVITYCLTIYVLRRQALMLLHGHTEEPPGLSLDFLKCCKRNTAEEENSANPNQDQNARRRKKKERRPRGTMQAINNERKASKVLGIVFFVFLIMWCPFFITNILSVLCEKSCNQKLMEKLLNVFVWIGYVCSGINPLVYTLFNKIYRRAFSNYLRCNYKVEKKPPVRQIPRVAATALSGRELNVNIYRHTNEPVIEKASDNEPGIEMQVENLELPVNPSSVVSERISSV
Test Readout: Ki (nM)
One number for each entry, in nM.

Ask: # return recorded Ki for input `CC[C@@H](CO)NC(=O)[C@@H]1C=C2c3cccc4c3c(cn4C)C[C@H]2N(C)C1`
Reply: 1.58

###

Biological target: UniProt:P08909
Sequence (P08909 whole entry): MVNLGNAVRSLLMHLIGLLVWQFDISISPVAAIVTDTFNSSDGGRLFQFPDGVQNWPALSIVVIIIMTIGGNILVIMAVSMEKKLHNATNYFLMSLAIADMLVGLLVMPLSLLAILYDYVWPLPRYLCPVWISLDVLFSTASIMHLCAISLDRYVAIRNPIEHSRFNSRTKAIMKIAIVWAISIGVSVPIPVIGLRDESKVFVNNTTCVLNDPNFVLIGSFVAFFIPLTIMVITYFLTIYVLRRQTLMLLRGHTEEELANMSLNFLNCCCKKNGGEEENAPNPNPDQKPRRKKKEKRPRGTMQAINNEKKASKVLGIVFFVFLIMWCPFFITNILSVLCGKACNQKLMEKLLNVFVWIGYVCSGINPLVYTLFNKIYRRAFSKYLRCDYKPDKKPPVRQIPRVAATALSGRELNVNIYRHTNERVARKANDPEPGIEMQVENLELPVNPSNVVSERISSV
Test Readout: Ki (µM)
Numbers only, in µM.

Please review the entries below; each comes with its answer.
Mol: Cn1ccc2cc(NC(=O)Nc3cccnc3)ccc21
System Tested: UniProt:P08909
Observed Measurement: 1
--
Mol: CC[C@@H](CO)NC(=O)[C@@H]1C=C2c3cccc4c3c(cn4C)C[C@H]2N(C)C1
System Tested: UniProt:P08909
Observed Measurement: 0.00199

Ask: Consider the molecule `Clc1cccc(N2CCNCC2)c1` tested on UniProt:P08909; state its Ki.
Reply: 0.126
